Below are pKi values recorded for human β2 adrenergic receptor (Homo sapiens).
Hey, just a heads up that pKi is the negative log base 10 of the concentration in molar.

[
  {
    "Molecule": "O=c1ccc2c([C@@H](O)CNCCCCCCOCCc3ccccc3)ccc(O)c2[nH]1 [Comparison Compound, reference compound]",
    "Measurement Kind": "pKi",
    "Obs Value": 9.10
  }
]

Consider the additional molecule presented here.
I have this molecule here, O=c1ccc2c([C@@H](O)CNCCCCCCNCCc3ccccc3)ccc(O)c2[nH]1 [Compound of the Invention] , and I need its recorded pKi.
7.60

---

Measured Target: human β2-adrenoceptor (Homo sapiens, UniProt P07550)
Construct: expressed in transfected cells
Sequence (P07550 whole entry): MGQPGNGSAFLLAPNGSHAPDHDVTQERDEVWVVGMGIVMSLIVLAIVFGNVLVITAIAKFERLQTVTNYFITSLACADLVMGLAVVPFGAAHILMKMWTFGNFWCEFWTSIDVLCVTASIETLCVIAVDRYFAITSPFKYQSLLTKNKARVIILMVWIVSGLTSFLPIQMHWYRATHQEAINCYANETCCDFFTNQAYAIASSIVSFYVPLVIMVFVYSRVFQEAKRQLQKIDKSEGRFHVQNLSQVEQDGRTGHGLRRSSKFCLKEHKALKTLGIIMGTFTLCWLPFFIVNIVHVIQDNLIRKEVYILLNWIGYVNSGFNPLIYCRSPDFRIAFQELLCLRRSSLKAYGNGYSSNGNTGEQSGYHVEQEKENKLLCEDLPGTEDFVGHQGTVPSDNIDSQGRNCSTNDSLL
Procedure Text: Whole-cell cAMP Flashplate assay, recombinant cell line (Test B)
Assay type: cell-based
Condition Details: HEK-293 cells expressing cloned human β2-adrenoceptor, cAMP
Measurement Kind: pEC50
Keep it numeric: pEC50 is minus log10 of the concentration in mol/L.

[
  {
    "Compound": "O=c1ccc2c([C@@H](O)CNCCCCCCNCCc3ccccc3)ccc(O)c2[nH]1",
    "pEC50": 9.50
  }
]

Need pEC50, item O=c1ccc2c([C@@H](O)CNCCCCCCOCCc3ccccc3)ccc(O)c2[nH]1 [Comparison Compound, reference compound]
10.30

Cited source: patent US20080039495A1
